# activation per record follows
- SYSTEM_NAME: Glucocorticoid receptor (Homo sapiens) (UniProt P04150)
- Sequence (P04150 whole entry, looked up): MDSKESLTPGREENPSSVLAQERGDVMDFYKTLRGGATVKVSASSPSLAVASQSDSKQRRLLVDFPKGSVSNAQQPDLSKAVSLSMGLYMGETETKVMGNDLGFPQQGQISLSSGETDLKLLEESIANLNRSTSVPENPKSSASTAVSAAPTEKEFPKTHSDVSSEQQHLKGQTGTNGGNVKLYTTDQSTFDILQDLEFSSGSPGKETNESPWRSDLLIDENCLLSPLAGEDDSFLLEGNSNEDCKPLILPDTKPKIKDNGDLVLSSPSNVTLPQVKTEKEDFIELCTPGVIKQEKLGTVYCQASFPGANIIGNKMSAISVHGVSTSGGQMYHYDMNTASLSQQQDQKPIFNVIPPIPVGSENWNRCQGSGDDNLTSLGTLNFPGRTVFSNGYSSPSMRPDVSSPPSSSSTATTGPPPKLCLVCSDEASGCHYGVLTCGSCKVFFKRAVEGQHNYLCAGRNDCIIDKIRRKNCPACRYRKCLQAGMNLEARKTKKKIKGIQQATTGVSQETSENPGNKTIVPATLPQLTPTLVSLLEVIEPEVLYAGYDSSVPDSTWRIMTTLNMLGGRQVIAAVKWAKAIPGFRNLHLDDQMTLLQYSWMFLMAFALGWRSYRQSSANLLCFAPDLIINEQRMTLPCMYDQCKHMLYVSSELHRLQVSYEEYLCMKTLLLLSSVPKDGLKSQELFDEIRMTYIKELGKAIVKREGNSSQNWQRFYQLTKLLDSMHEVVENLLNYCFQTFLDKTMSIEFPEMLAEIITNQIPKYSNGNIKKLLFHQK
- PROTOCOL_NOTES: qHTS assay for small molecule agonists of glucocorticoid receptor signaling (AID 588532);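 note: 100% = dexamethasone at 0.1 µM and 0% = DMSO only wells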
- MEASUREMENT_PARAMETERS: HeLa MMTV-bla, beta-lactamase ratio, agonist, 18 h; hits give high values; percent of dexamethasone control, DMSO zero
Results filed as inconclusive are left out.
Numeric only. Scale: %

molecule=CC(C)CCCCCOC(=O)CS system_name="Glucocorticoid receptor (Homo sapiens) (UniProt P04150)" numeric_value=5.28
molecule="CCC(=O)C1C(=O)CC(C(=O)O)CC1=O (stereo not drawn)" system_name="Glucocorticoid receptor (Homo sapiens) (UniProt P04150)" numeric_value=6.99

Turning now to a further molecule:
Qu. activation for COc1ccc(OC)c(OC)c1 ?
Ans. 0.211
